Parameter Convulsion test mice i.v., Death: see the listing below.
conditionDetails: constant rate i.v. infusion
The reply should contain only the number, in mg/kg i.v..

Here are 4 compounds together with their reported answers.
| compound | unitAbbrev | reported |
| --- | --- | --- |
| Cc1nc2c([nH]1)c(=O)[nH]c(=O)n2CC(C)(C)C [D 4070] | mg/kg i.v. | 693.3 |
| Cc1nc2c([nH]1)c(=O)[nH]c(=O)n2CC1CCCCC1 [D 4137] | mg/kg i.v. | 493.1 |
| O=c1[nH]c(=O)n(C2CCC2)c2nc[nH]c12 [D 4164] | mg/kg i.v. | 519.2 |
| O=c1[nH]c(=O)n(CC2CCCCC2)c2nc[nH]c12 [D 4138] | mg/kg i.v. | 543.6 |

Quickly give me recorded Convulsion test mice i.v., Death for O=c1[nH]c(=O)n(C2CC2)c2nc[nH]c12 [D 4161]
1030

====

conditionDetails: constant rate i.v. infusion
reportedEndpoint: Convulsion test mice i.v., Death

| compound | Convulsion test mice i.v., Death |
| --- | --- |
| CC(C)(C)Cn1c(=O)[nH]c(=O)c2[nH]cnc21 | 519.1 ± 16.6 mg/kg i.v. |
| O=c1[nH]c(=O)n(C2CCCC2)c2nc[nH]c12 | 593 ± 21.9 mg/kg i.v. |
| Cn1c(=O)c2[nH]cnc2n(C)c1=O [Theophylline, theophylline, reference compound] | 446.3 ± 9.6 mg/kg i.v. |

Proceed to the following item.
Quickly give me recorded Convulsion test mice i.v., Death for Cn1c(=O)c2c(ncn2C)n(C)c1=O [Caffeine, caffeine, reference compound]
391.7 ± 17.7 mg/kg i.v.

Entry source: patent US4548818A
